# experimental-target: Peptide 1: Biotin-…-[Tyr(PC)]-acid
# Sequence (peptide, as listed by the source): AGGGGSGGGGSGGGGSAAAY
# test-details: scFv ELISA

binder	quantity-unit	OD450
PcOxP_DB02_C01 (scFv, V domains shown, scFv in periplasmic extract) VH: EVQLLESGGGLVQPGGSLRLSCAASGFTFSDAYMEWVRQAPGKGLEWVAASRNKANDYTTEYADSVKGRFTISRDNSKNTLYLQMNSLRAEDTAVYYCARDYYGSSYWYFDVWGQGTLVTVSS VL: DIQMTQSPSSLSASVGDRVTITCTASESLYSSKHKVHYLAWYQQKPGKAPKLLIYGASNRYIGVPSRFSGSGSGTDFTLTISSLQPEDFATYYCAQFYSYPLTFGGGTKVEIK	OD450	1.03
PcOxP_DB04_C11 (scFv, V domains shown, scFv in periplasmic extract) VH: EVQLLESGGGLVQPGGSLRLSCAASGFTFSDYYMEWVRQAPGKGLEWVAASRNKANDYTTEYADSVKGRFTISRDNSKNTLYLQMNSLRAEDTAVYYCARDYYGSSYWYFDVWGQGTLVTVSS VL: DIVMTQSPDSLAVSLGERATINCTASESLYSSKHKVHYLAWYQQKPGQPPKLLIYGASHRQIGVPDRFSGSGSGTDFTLTISSLQAEDVAVYYCAQFYSYPLTFGGGTKVEIK	OD450	0.81
PcOxP_DB01_C05 (scFv, V domains shown, scFv in periplasmic extract) VH: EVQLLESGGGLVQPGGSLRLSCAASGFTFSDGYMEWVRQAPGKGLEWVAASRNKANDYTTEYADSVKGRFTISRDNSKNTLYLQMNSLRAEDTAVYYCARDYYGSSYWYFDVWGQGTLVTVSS VL: DIQMTQSPSSLSASVGDRVTITCTASESLYSSKHKVHYLAWYQQKPGKAPKLLIYGSSNRYIGVPSRFSGSGSGTDFTLTISSLQPEDFATYYCAQFYAYPLTFGGGTKVEIK	OD450	0.79
PcOxP_DB03_F02 (scFv, V domains shown, scFv in periplasmic extract) VH: EVQLLESGGGLVQPGGSLRLSCAASGFTFSSYYMEWVRQAPGKGLEWVAASRNKANDYTTEYADSVKGRFTISRDNSKNTLYLQMNSLRAEDTAVYYCARDYYDSSYWYFDVWGQGTLVTVSS VL: DIVMTQSPDSLAVSLGERATINCTSSESLLSSKHKVHYLAWYQQKPGQPPKLLIYGASNRYTGVPDRFSGSGSGTDFTLTISSLQAEDVAVYYCAQFYSYPLTFGGGTKVEIK	OD450	1.56
PcOxP_DB02_G02 (scFv, V domains shown, scFv in periplasmic extract) VH: EVQLLESGGGLVQPGGSLRLSCAASGFGFSDFYMEWVRQAPGKGLEWVAASRNKANDYTTEYADSVKGRFTISRDNSKNTLYLQMNSLRAEDTAVYYCARDYYGSSYWYFDVWGQGTLVTVSS VL: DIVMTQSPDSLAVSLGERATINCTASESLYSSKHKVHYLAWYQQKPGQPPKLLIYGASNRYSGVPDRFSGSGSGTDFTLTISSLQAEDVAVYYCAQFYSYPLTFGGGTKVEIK	OD450	1.01
PcOxP_DB01_C04 (scFv, V domains shown, scFv in periplasmic extract) VH: EVQLLESGGGLVQPGGSLRLSCAASGFQFSDFYMEWVRQAPGKGLEWVAASRNKANDYTTEYADSVKGRFTISRDNSKNTLYLQMNSLRAEDTAVYYCARDYYGSSYWYFDVWGQGTLVTVSS VL: DIQMTQSPSSLSASVGDRVTITCTASESLYSSKHKVHYLAWYQQKPGKAPKLLIYGASNRYIGVPSRFSGSGSGTDFTLTISSLQPEDFATYYCAQFYYYPLTFGGGTKVEIK	OD450	1.38
PcOxP_DB02_G05 (scFv, V domains shown, scFv in periplasmic extract) VH: EVQLLESGGGLVQPGGSLRLSCAASGFTFSDFYMEWVRQAPGKGLEWVAASRNKANDYTTEYADSVKGRFTISRDNSKNTLYLQMNSLRAEDTAVYYCARDYYGSSHWYFDVWGQGTLVTVSS VL: DIVMTQSPDSLAVSLGERATINCTASESLYSSKHKLHYLAWYQQKPGQPPKLLIYGASNRYIGVPDRFSGSGSGTDFTLTISSLQAEDVAVYYCGQFYSYPLTFGGGTKVEIK	OD450	1.49

The measured values listed here are drawn from patent US20250320312A1.
